B1: Homeobox protein cut-like 2, residues 895 to 963; numbered along this chain, O14529 (parent)
chain: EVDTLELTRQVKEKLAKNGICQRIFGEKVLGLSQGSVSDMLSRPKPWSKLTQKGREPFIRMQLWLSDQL

variants of: B1; assay: abundance fitness (aPCA) (normalised: wild type 0, dead -1); higher = more abundant; growth selection in yeast, the domain comes from the species named; conditions: Homo sapiens
# cutoff -0.2 applies to abundance fitness; >= gives True, < gives False

The following variants have reported results that may help.
variant_code=G31H qualitative_label=True
variant_code=I59D qualitative_label=False
variant_code=K12T qualitative_label=False
variant_code=W47K qualitative_label=False
variant_code=L41K qualitative_label=True
variant_code=K28F qualitative_label=False
variant_code=Q22M qualitative_label=True
variant_code=S48K qualitative_label=True

Given the entry P57H , answer whether its abundance fitness meets or surpasses -0.2.
True

Given the entry D39Y , answer whether its abundance fitness meets or surpasses -0.2.
False

Given the entry Q62W , answer whether its abundance fitness meets or surpasses -0.2.
True

Given the entry L30S , answer whether its abundance fitness meets or surpasses -0.2.
False

Given the entry C21G , answer whether its abundance fitness meets or surpasses -0.2.
True

Given the entry L63F , answer whether its abundance fitness meets or surpasses -0.2.
False
